So I've got a bunch of compounds here, and I need their MIC values.
Tested on: Staphylococcus aureus
assay method text: Antimicrobial activity against methicillin-resistant Staphylococcus aureus clinical isolate obtained from pharyngeal smear by CLSI method
Format: functional
Lab book: enter the figure in µg/mL, no units written.

Problem: GET /values?readout=MIC&item= CNC(=O)C[C@@H]1NC(=O)c2csc(n2)-c2ccc(-c3nc(-n4cnc(C(=O)O)c4)cs3)nc2-c2csc(n2)-c2csc(n2)[C@H]([C@@H](O)c2ccccc2)NC(=O)CNC(=O)c2nc(sc2COC)[C@H](C(C)C)NC(=O)c2nc1sc2C
Result: 4

Problem: GET /values?readout=MIC&item= CNC(=O)C[C@@H]1NC(=O)c2csc(n2)-c2ccc(-c3nc(C4=N[C@H](C(=O)N5CCC[C@H]5C(N)=O)CO4)cs3)nc2-c2csc(n2)-c2csc(n2)[C@H]([C@@H](O)c2ccccc2)NC(=O)CNC(=O)c2nc(sc2COC)[C@H](C(C)C)NC(=O)c2nc1sc2C
Result: 0.25

Problem: GET /values?readout=MIC&item= CNC(=O)C[C@@H]1NC(=O)c2csc(n2)-c2ccc(-c3nc(-n4cnc(C(=O)N5CCC[C@H]5C(=O)O)c4)cs3)nc2-c2csc(n2)-c2csc(n2)[C@H]([C@@H](O)c2ccccc2)NC(=O)CNC(=O)c2nc(sc2COC)[C@H](C(C)C)NC(=O)c2nc1sc2C
Result: 8

Problem: GET /values?readout=MIC&item= CNC(=O)C[C@@H]1NC(=O)c2csc(n2)-c2ccc(-c3nc(-n4cnc(C(=O)NCC(=O)O)c4)cs3)nc2-c2csc(n2)-c2csc(n2)[C@H]([C@@H](O)c2ccccc2)NC(=O)CNC(=O)c2nc(sc2COC)[C@H](C(C)C)NC(=O)c2nc1sc2C
Result: 4
